# SYSTEM_TESTED: Mitogen-activated protein kinase; ERK1/ERK2 (Homo sapiens, UniProt P27361+P28482)
# EXPERIMENT_NOTES: Inhibition of ERK1/2 phosphorylation in human MALME3M cells
# Type: cell-based
OBSERVED_PROPERTY: IC50 (nM)
Kindly provide the numeric value in nM only, without the unit symbol.

| COMPOUND | OBSERVED_PROPERTY | NUMERIC_READOUT |
| --- | --- | --- |
| O/N=C1\CCc2cc(-c3cn(CC4CCNCC4)nc3-c3ccncc3)ccc21 | IC50 | 332 |

query: Using the record for "OCC(CO)n1cc(-c2ccc3c(c2)CC/C3=N\O)c(-c2ccncc2)n1" , report its IC50.
result: 171

query: Using the record for O/N=C1\CCc2cc(-c3cn([C@@H]4CCC[C@H](O)C4)nc3-c3ccncc3)ccc21 (relative stereo) , report its IC50.
result: 7

query: Using the record for "Cn1cc(-c2ccc(/C(N)=N\O)cc2)c(-c2ccncc2)n1" , report its IC50.
result: 20000

query: Using the record for "Cn1cc(-c2ccc3c(c2)CC/C3=N\O)c(-c2ccncn2)n1" , report its IC50.
result: 1500

query: Using the record for "CN(C)CCCn1cc(-c2ccc3c(c2)CC/C3=N\O)c(-c2ccncc2)n1" , report its IC50.
result: 122

query: Using the record for "COCCn1cc(-c2ccc3c(c2)CC/C3=N\O)c(-c2ccncc2)n1" , report its IC50.
result: 569

query: Using the record for "O/N=C1\CCc2cc(-c3c[nH]nc3-c3ccncc3)ccc21" , report its IC50.
result: 53

###

# SYSTEM_TESTED: Serine/threonine-protein kinase B-raf (Homo sapiens)
# EXPERIMENT_NOTES: Inhibition of human recombinant B-Raf by fluorescence anisotropy
OBSERVED_PROPERTY: IC50

| COMPOUND | SYSTEM_TESTED | RESULT |
| --- | --- | --- |
| NCCCn1cc(-c2ccc3c(c2)CC/C3=N\O)c(-c2ccncc2)n1 | Serine/threonine-protein kinase B-raf (Homo sapiens) | 0.39 nM |
| O/N=C1\CCc2cc(-c3cn(CC4CCCNC4)nc3-c3ccncc3)ccc21 (stereo not drawn) | Serine/threonine-protein kinase B-raf (Homo sapiens) | 0.85 nM |
| Cn1cc(-c2ccc3c(c2)CC/C3=N\O)c(-c2cccnc2)n1 | Serine/threonine-protein kinase B-raf (Homo sapiens) | 434 nM |
| Cn1cc(-c2ccc3c(c2)CC/C3=N\O)c(-c2ccncc2)n1 | Serine/threonine-protein kinase B-raf (Homo sapiens) | 0.02 nM |
| O/N=C1\CCc2cc(-c3cn(C4CCNCC4)nc3-c3ccncc3)ccc21 | Serine/threonine-protein kinase B-raf (Homo sapiens) | 0.03 nM |
| Cn1cc(-c2ccc3c(c2)CC/C3=N\O)c(-c2ccnc(N)c2)n1 | Serine/threonine-protein kinase B-raf (Homo sapiens) | 2.1 nM |

// moving on: another record for IC50
query: Using the record for "Cn1cc(-c2ccc3c(c2)CC/C3=N\O)c(-c2ccncn2)n1" , report its IC50.
result: 3.1 nM

###

# SYSTEM_TESTED: Serine/threonine-protein kinase B-raf (Homo sapiens, UniProt P15056)
# Sequence (P15056 whole entry): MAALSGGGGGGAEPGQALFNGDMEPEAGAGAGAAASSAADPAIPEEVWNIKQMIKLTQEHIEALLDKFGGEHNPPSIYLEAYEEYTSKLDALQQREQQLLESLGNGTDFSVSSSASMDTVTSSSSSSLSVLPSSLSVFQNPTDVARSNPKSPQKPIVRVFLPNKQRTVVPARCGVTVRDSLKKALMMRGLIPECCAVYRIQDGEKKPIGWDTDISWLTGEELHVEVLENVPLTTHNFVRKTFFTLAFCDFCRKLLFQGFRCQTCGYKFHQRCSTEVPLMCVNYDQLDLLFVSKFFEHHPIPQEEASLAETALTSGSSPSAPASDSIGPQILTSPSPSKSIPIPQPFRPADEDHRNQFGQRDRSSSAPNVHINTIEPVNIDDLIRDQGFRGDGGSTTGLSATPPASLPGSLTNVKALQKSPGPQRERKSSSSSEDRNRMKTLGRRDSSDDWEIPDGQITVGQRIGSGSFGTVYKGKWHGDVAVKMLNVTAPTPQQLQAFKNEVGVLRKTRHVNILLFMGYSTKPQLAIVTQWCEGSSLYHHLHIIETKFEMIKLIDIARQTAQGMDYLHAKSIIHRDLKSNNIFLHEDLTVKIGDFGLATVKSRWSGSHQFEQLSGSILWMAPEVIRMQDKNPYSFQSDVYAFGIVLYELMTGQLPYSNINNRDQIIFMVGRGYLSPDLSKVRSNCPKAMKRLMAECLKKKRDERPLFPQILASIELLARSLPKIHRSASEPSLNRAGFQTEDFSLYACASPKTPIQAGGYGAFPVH
# EXPERIMENT_NOTES: Inhibition of human recombinant B-Raf by fluorescence anisotropy
Friendly reminder: IC50 below 0.2 nM is MET, at or above is NOT MET.

A selection of reference data follows.
| COMPOUND | LABEL_VALUE |
| --- | --- |
| OCCCn1cc(-c2ccc3c(c2)CC/C3=N\O)c(-c2ccncc2)n1 | MET |
| CNC1CCCC(n2cc(-c3ccc4c(c3)CC/C4=N\O)c(-c3ccncc3)n2)C1 (centres undefined) | NOT MET |
| Cn1cc(-c2ccc(/C(N)=N\O)cc2)c(-c2ccncc2)n1 | NOT MET |
| CN(C)CCCn1cc(-c2ccc3c(c2)CC/C3=N\O)c(-c2ccncc2)n1 | NOT MET |
| O/N=C1\CCc2cc(-c3cn([C@@H]4CCC[C@H](O)C4)nc3-c3ccncc3)ccc21 (relative stereo) | MET |
| O/N=C1\CCc2cc(-c3cn([C@@H]4CCC[C@@H](O)C4)nc3-c3ccncc3)ccc21 (relative stereo) | MET |
| CN(C)CCn1cc(-c2ccc3c(c2)CC/C3=N\O)c(-c2ccncc2)n1 | NOT MET |
| Cn1cc(-c2ccc(-c3cc[nH]n3)cc2)c(-c2ccncc2)n1 | NOT MET |

Alright, here's another compound for you.
query: Check if IC50 falls below 0.2 nM for "O/N=C1\CCc2cc(-c3cn(C4CCCC4)nc3-c3ccncc3)ccc21" .
result: NOT MET

###

Items are presented alongside their recorded pIC50.
# SYSTEM_TESTED: Serine/threonine-protein kinase B-raf (Homo sapiens)
# EXPERIMENT_NOTES: Inhibition of human recombinant B-Raf by fluorescence anisotropy
Please keep in mind that pIC50 is minus log10 of the molar concentration; only the number is needed.

Use these answered entries as a reference point.
| COMPOUND | pIC50 |
| --- | --- |
| NCCn1cc(-c2ccc3c(c2)CC/C3=N\O)c(-c2ccncc2)n1 | 8.62 |
| Cn1cc(-c2ccc3c(c2)CC/C3=N\O)c(-c2ccc3c(cnn3C)c2)n1 | 6.01 |
| Cn1cc(-c2ccc3cn[nH]c3c2)c(-c2ccncc2)n1 | 7.15 |
| O/N=C1\CCc2cc(-c3cn(CC4CCNCC4)nc3-c3ccncc3)ccc21 | 8.92 |

// moving on: another record for pIC50
query: Using the record for OCC(O)Cn1cc(-c2ccc3c(c2)CC/C3=N\O)c(-c2ccncc2)n1 (stereo not given) , report its pIC50.
result: 9.06

###

# EXPERIMENT_NOTES: Aqueous solubility at pH 6.5 by shake-flask method
# Assay type: physicochemical
# ASSAY_CONTEXT: aqueous medium
OBSERVED_PROPERTY: solubility thermodynamic (µg/mL)
Kindly provide the numeric value in µg/mL only, without the unit symbol.

Use these answered entries as a reference point.
| COMPOUND | solubility thermodynamic, µg/mL |
| --- | --- |
| Cn1cc(-c2ccc3c(c2)CN/C3=N/O)c(-c2ccncc2)n1 | 590 |
| OCCn1cc(-c2ccc3c(c2)CC/C3=N\O)c(-c2ccncc2)n1 | 76 |
| O/N=C1\CCc2cc(-c3cn(C4CCNCC4)nc3-c3ccncc3)ccc21 | 52 |

// moving on: another record for solubility thermodynamic
query: Using the record for O/N=C1\CCc2cc(-c3cn([C@@H]4CCC[C@H](O)C4)nc3-c3ccncc3)ccc21 (relative stereo) , report its solubility thermodynamic.
result: 3

###

# SYSTEM_TESTED: Mitogen-activated protein kinase; ERK1/ERK2 (Homo sapiens, UniProt P27361+P28482)
# EXPERIMENT_NOTES: Inhibition of ERK1/2 phosphorylation in human MALME3M cells
# Type: cell-based
Friendly reminder: IC50 below 0.03 µM is 1, at or above is 0.

query: Check if IC50 falls below 0.03 µM for "Cn1cc(-c2ccc3c(c2)CCN/C3=N/O)c(-c2ccncc2)n1" .
result: 0

query: Check if IC50 falls below 0.03 µM for "NCCCn1cc(-c2ccc3c(c2)CC/C3=N\O)c(-c2ccncc2)n1" .
result: 1

query: Check if IC50 falls below 0.03 µM for O/N=C1\CCc2cc(-c3cn([C@@H]4CCC[C@@H](O)C4)nc3-c3ccncc3)ccc21 (relative stereo) .
result: 1

###

# SYSTEM_TESTED: Serine/threonine-protein kinase B-raf (Homo sapiens, UniProt P15056)
# EXPERIMENT_NOTES: Inhibition of human recombinant B-Raf by fluorescence anisotropy
Items are presented alongside their recorded pIC50.
Please keep in mind that pIC50 is minus log10 of the molar concentration; only the number is needed.

Use these answered entries as a reference point.
| COMPOUND | SYSTEM_TESTED | pIC50 |
| --- | --- | --- |
| O/N=C1\CCc2cc(-c3c[nH]nc3-c3ccncc3)ccc21 | Serine/threonine-protein kinase B-raf (Homo sapiens, UniProt P15056) | 9.82 |
| O/N=C1\CCc2cc(-c3cn(C4CCOCC4)nc3-c3ccncc3)ccc21 | Serine/threonine-protein kinase B-raf (Homo sapiens, UniProt P15056) | 9.66 |
| COCCn1cc(-c2ccc3c(c2)CC/C3=N\O)c(-c2ccncc2)n1 | Serine/threonine-protein kinase B-raf (Homo sapiens, UniProt P15056) | 8.94 |
| Cn1ncc(-c2ccc3c(c2)CC/C3=N\O)c1-c1ccncc1 | Serine/threonine-protein kinase B-raf (Homo sapiens, UniProt P15056) | 9.32 |
| CCn1cc(-c2ccc3c(c2)CC/C3=N\O)c(-c2ccncc2)n1 | Serine/threonine-protein kinase B-raf (Homo sapiens, UniProt P15056) | 9.24 |
| O/N=C1\CCc2cc(-c3cn([C@H]4CCC[C@H]4O)nc3-c3ccncc3)ccc21 (relative stereo) | Serine/threonine-protein kinase B-raf (Homo sapiens, UniProt P15056) | 8.41 |
| Cn1cc(-c2ccc3c(c2)Cc2c[nH]nc2-3)c(-c2ccncc2)n1 | Serine/threonine-protein kinase B-raf (Homo sapiens, UniProt P15056) | 8.82 |
| Cn1cc(-c2ccc3c(c2)C(=O)NC3)c(-c2ccncc2)n1 | Serine/threonine-protein kinase B-raf (Homo sapiens, UniProt P15056) | 7.16 |
| Cc1c[nH]nc1-c1ccc(-c2cn(C)nc2-c2ccncc2)cc1 | Serine/threonine-protein kinase B-raf (Homo sapiens, UniProt P15056) | 8.36 |
| CN1CCC(n2cc(-c3ccc4c(c3)CC/C4=N\O)c(-c3ccncc3)n2)CC1 | Serine/threonine-protein kinase B-raf (Homo sapiens, UniProt P15056) | 9.47 |

query: Using the record for "Cn1cc(-c2ccc3c(c2)CC/C3=N\O)c(-c2ccnc(O)c2)n1" , report its pIC50.
result: 8.54

query: Using the record for "Cn1cc(-c2ccc3c(c2)CCN/C3=N/O)c(-c2ccncc2)n1" , report its pIC50.
result: 7.80

query: Using the record for "OCC(CO)n1cc(-c2ccc3c(c2)CC/C3=N\O)c(-c2ccncc2)n1" , report its pIC50.
result: 9.25

query: Using the record for "Cn1cc(-c2ccc3c(c2)CC/C3=N\O)c(-c2cnco2)n1" , report its pIC50.
result: 8.39

query: Using the record for O/N=C1\CCc2cc(-c3cn([C@H]4CCC[C@@H]4O)nc3-c3ccncc3)ccc21 (relative stereo) , report its pIC50.
result: 9.48
